# credit: patent US11834458B2

Biological target: AR (Homo sapiens (Human), UniProt P10275, T878A)
Sequence (P10275 whole entry T878A): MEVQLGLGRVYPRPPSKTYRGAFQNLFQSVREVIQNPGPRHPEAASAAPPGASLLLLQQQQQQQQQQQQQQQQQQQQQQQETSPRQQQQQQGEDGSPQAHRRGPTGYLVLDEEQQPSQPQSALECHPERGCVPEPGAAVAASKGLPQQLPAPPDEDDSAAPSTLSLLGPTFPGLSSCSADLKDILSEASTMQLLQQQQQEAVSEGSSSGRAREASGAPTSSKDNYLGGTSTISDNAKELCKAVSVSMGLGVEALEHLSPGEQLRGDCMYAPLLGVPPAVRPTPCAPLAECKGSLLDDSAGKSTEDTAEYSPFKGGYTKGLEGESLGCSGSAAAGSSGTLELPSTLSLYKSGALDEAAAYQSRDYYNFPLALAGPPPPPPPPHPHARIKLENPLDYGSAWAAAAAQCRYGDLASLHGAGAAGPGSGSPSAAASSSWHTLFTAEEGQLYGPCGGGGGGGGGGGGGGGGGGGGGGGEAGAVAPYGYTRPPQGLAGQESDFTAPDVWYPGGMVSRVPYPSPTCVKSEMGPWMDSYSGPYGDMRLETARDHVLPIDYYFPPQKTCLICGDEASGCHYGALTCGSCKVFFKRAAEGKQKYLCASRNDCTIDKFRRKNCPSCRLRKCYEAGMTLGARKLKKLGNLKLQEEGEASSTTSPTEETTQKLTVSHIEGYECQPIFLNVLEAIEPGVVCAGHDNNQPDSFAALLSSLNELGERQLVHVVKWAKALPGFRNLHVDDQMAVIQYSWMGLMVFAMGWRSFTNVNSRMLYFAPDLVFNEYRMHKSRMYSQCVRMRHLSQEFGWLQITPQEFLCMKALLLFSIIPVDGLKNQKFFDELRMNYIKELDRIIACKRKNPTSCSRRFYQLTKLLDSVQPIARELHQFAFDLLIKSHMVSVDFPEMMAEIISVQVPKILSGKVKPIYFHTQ
Experiment: AR binding assay
Settings: cytosol from LnCaP cells, 3H-R1881 1 nM, 4° C. 24 hrs; read-out: AR binding
Listed compounds paired with reported IC50
experimental readout: IC50

compound	result
CC[C@@]1(O)C(=O)OCc2c1cc1n(c2=O)Cc2cc3c(CN(C)C)c(OCCCCCOc4ccc(C(=O)N[C@H]5CC[C@H](Oc6ccc(C#N)c(Cl)c6)CC5)cc4)ccc3nc2-1	> 1000 nM
CC[C@@]1(O)C(=O)OCc2c1cc1n(c2=O)Cc2cc3c(CN4CCN(CC5CCN(c6ccc(C(=O)N[C@H]7CC[C@H](Oc8ccc(C#N)c(Cl)c8)CC7)nn6)CC5)CC4)c(O)ccc3nc2-1	10 to 500 nM
CC[C@@]1(O)C(=O)OCc2c1cc1n(c2=O)Cc2cc3c(CN(C)C)c(OC4CCN(CCCCCCN(C)c5ccc([C@H]6C[C@@]7(C)C(CC[C@]7(OC(C)=O)C(C)=O)C7CCC8=CC(=O)CCC8=C76)cc5)CC4)ccc3nc2-1 (stereo partly shown)	10 to 500 nM
CCc1c2c(nc3ccc(OC(=O)N4CCN(C(=O)CCCCCN(C)c5ccc([C@H]6C[C@@]7(C)[C@@H](CC[C@]7(OC(C)=O)C(C)=O)[C@@H]7CCC8=CC(=O)CCC8=C76)cc5)CC4)cc13)-c1cc3c(c(=O)n1C2)COC(=O)[C@]3(O)CC	< 10 nM

====

Listed compounds paired with reported IC50
Tested on: IEC6 cells
Test: Cell viability assay, IEC6
Type: cell-based
Conditions: Rattus norvegicus, 144 h; IEC-6 cells, 6 days, CellTiterGlo; read-out: IEC-6 (IC50)
Experimental: Cell viability assay: LNCap, 22Rv1, MCF7, MDAMB361, T47D, and IEC6 cells are seeded at a density of 500-2000 cells/well in 96 well plates, and a ‘T0’ (timepoint 0) was included along with the assay plate. The plates are then incubated at 37° C., 5% CO2 in a cell culture incubator overnight. […] After the incubation period, the plates are assayed using CellTiterGlo (Promega, Inc) according to the manufacturer's instructions and luminescence was read on the EnVision plate reader. […]

structure string	IC50
CC[C@@]1(O)C(=O)OCc2c1cc1n(c2=O)Cc2cc3c(CN4CCN(C(=O)CCCCCN(C)c5ccc([C@H]6C[C@@]7(C)[C@@H](CC[C@]7(OC(C)=O)C(C)=O)[C@@H]7CCC8=CC(=O)CCC8=C76)cc5)CC4)c(O)ccc3nc2-1	> 1 µM
CC[C@@]1(O)C(=O)OCc2c1cc1n(c2=O)Cc2cc3c(CN4CCN(CC5CCN(c6ccc(C(=O)N[C@H]7CC[C@H](Oc8ccc(C#N)c(Cl)c8)CC7)nn6)CC5)CC4)c(O)ccc3nc2-1	0.501 to 1 µM
CC[C@@]1(O)C(=O)OCc2c1cc1n(c2=O)Cc2cc3c(CN4CCC(N(C)C(=O)CO[C@H]5CC[C@H]6[C@@H]7CC[C@H]8CC(=O)CC[C@]8(C)[C@H]7CC[C@]56C)CC4)c(O)ccc3nc2-1	> 1 µM
CC[C@@]1(O)C(=O)OCc2c1cc1n(c2=O)Cc2cc3c(CN(C)C(=O)CO[C@H]4CC[C@H]5[C@@H]6CC[C@H]7CC(=O)CC[C@]7(C)[C@H]6CC[C@]45C)c(O)ccc3nc2-1	> 1 µM
